Test system: Mycobacterium tuberculosis Erdman (autoluminescent)
Experiment: GRinf, maximum normalised growth rate inhibition (three-drug combination) (unitless (-1 to 1)); higher = less effect (negative = killing)
Conditions: in vitro model: valerate; time point: constant (~7 days, model-specific)

compound	targetOrTestSystem	GRinf
COc1nc2ccc(Br)cc2cc1[C@@H](c1ccccc1)[C@@](O)(CCN(C)C)c1cccc2ccccc12 [bedaquiline] + COc1c(N2C[C@@H]3CCCN[C@@H]3C2)c(F)cc2c(=O)c(C(=O)O)cn(C3CC3)c12 [moxifloxacin] + CO[C@H]1/C=C/O[C@@]2(C)Oc3c(C)c(O)c4c(O)c(c(/C=N/N5CCN(C)CC5)c(O)c4c3C2=O)NC(=O)/C(C)=C\C=C\[C@H](C)[C@H](O)[C@@H](C)[C@@H](O)[C@@H](C)[C@H](OC(C)=O)[C@@H]1C [rifampicin]	Mycobacterium tuberculosis Erdman (autoluminescent)	-0.0825

* * *

System: Mycobacterium tuberculosis Erdman (autoluminescent)
Experiment: AUC25, normalised area under dose response up to IC25 (three-drug combination) (fraction (0-1)); higher = more potent at low dose
Details: in vitro model: acidic pH 5.7; time point: terminal (~4-5 doublings, model-specific)
Param threshold (0.08) applies to AUC25; output 1.0 when value >= threshold, 0.0 when value < threshold.

compound	group
CC(=O)NC[C@H]1CN(c2ccc(N3CCOCC3)c(F)c2)C(=O)O1 [linezolid] + COc1c(N2C[C@@H]3CCCN[C@@H]3C2)c(F)cc2c(=O)c(C(=O)O)cn(C3CC3)c12 [moxifloxacin] + CO[C@H]1/C=C/O[C@@]2(C)Oc3c(C)c(O)c4c(O)c(c(/C=N/N5CCN(C)CC5)c(O)c4c3C2=O)NC(=O)/C(C)=C\C=C\[C@H](C)[C@H](O)[C@@H](C)[C@@H](O)[C@@H](C)[C@H](OC(C)=O)[C@@H]1C [rifampicin]	0.0
COc1nc2ccc(Br)cc2cc1[C@@H](c1ccccc1)[C@@](O)(CCN(C)C)c1cccc2ccccc12 [bedaquiline] + CC(=O)NC[C@H]1CN(c2ccc(N3CCOCC3)c(F)c2)C(=O)O1 [linezolid] + COc1c(N2C[C@@H]3CCCN[C@@H]3C2)c(F)cc2c(=O)c(C(=O)O)cn(C3CC3)c12 [moxifloxacin]	0.0
CC(C)/N=c1\cc2n(-c3ccc(Cl)cc3)c3ccccc3nc-2cc1Nc1ccc(Cl)cc1 [clofazimine] + NNC(=O)c1ccncc1 [isoniazid] + COc1c(N2C[C@@H]3CCCN[C@@H]3C2)c(F)cc2c(=O)c(C(=O)O)cn(C3CC3)c12 [moxifloxacin]	1.0
CC[C@@H](CO)NCCN[C@@H](CC)CO [ethambutol] + CC(=O)NC[C@H]1CN(c2ccc(N3CCOCC3)c(F)c2)C(=O)O1 [linezolid] + CO[C@H]1/C=C/O[C@@]2(C)Oc3c(C)c(O)c4c(O)c(c(/C=N/N5CCN(C)CC5)c(O)c4c3C2=O)NC(=O)/C(C)=C\C=C\[C@H](C)[C@H](O)[C@@H](C)[C@@H](O)[C@@H](C)[C@H](OC(C)=O)[C@@H]1C [rifampicin]	0.0
CC(C)/N=c1\cc2n(-c3ccc(Cl)cc3)c3ccccc3nc-2cc1Nc1ccc(Cl)cc1 [clofazimine] + CC[C@@H](CO)NCCN[C@@H](CC)CO [ethambutol] + NNC(=O)c1ccncc1 [isoniazid]	1.0
CC[C@@H](CO)NCCN[C@@H](CC)CO [ethambutol] + NNC(=O)c1ccncc1 [isoniazid] + CO[C@H]1/C=C/O[C@@]2(C)Oc3c(C)c(O)c4c(O)c(c(/C=N/N5CCN(C6CCCC6)CC5)c(O)c4c3C2=O)NC(=O)/C(C)=C\C=C\[C@H](C)[C@H](O)[C@@H](C)[C@@H](O)[C@@H](C)[C@H](OC(C)=O)[C@@H]1C [rifapentine]	0.0
CC(C)/N=c1\cc2n(-c3ccc(Cl)cc3)c3ccccc3nc-2cc1Nc1ccc(Cl)cc1 [clofazimine] + NNC(=O)c1ccncc1 [isoniazid] + CC(=O)NC[C@H]1CN(c2ccc(N3CCOCC3)c(F)c2)C(=O)O1 [linezolid]	0.0
CC(C)/N=c1\cc2n(-c3ccc(Cl)cc3)c3ccccc3nc-2cc1Nc1ccc(Cl)cc1 [clofazimine] + NNC(=O)c1ccncc1 [isoniazid] + CO[C@H]1/C=C/O[C@@]2(C)Oc3c(C)c(O)c4c(O)c(c(/C=N/N5CCN(C)CC5)c(O)c4c3C2=O)NC(=O)/C(C)=C\C=C\[C@H](C)[C@H](O)[C@@H](C)[C@@H](O)[C@@H](C)[C@H](OC(C)=O)[C@@H]1C [rifampicin]	0.0
COc1c(N2C[C@@H]3CCCN[C@@H]3C2)c(F)cc2c(=O)c(C(=O)O)cn(C3CC3)c12 [moxifloxacin] + NC(=O)c1cnccn1 [pyrazinamide] + CO[C@H]1/C=C/O[C@@]2(C)Oc3c(C)c(O)c4c(O)c(c(/C=N/N5CCN(C)CC5)c(O)c4c3C2=O)NC(=O)/C(C)=C\C=C\[C@H](C)[C@H](O)[C@@H](C)[C@@H](O)[C@@H](C)[C@H](OC(C)=O)[C@@H]1C	0.0

* * *

System: Mycobacterium tuberculosis Erdman (autoluminescent)
Assay: total FIC90 (Loewe) at 90% inhibition, three-drug combination (log2); higher = more antagonistic
Conditions: in vitro model: cholesterol 0.05 mM; time point: terminal (~4-5 doublings, model-specific)
Entries and their measured total FIC90 follow.
measurementType: total FIC90

molecule	value
CC(C)/N=c1\cc2n(-c3ccc(Cl)cc3)c3ccccc3nc-2cc1Nc1ccc(Cl)cc1 [clofazimine] + COc1c(N2C[C@@H]3CCCN[C@@H]3C2)c(F)cc2c(=O)c(C(=O)O)cn(C3CC3)c12 [moxifloxacin] + CO[C@H]1/C=C/O[C@@]2(C)Oc3c(C)c(O)c4c(O)c(c(/C=N/N5CCN(C)CC5)c(O)c4c3C2=O)NC(=O)/C(C)=C\C=C\[C@H](C)[C@H](O)[C@@H](C)[C@@H](O)[C@@H](C)[C@H](OC(C)=O)[C@@H]1C [rifampicin]	-0.407
NNC(=O)c1ccncc1 [isoniazid] + O=[N+]([O-])c1cn2c(n1)OC[C@@H](OCc1ccc(OC(F)(F)F)cc1)C2 [pretomanid] + CO[C@H]1/C=C/O[C@@]2(C)Oc3c(C)c(O)c4c(O)c(c(/C=N/N5CCN(C)CC5)c(O)c4c3C2=O)NC(=O)/C(C)=C\C=C\[C@H](C)[C@H](O)[C@@H](C)[C@@H](O)[C@@H](C)[C@H](OC(C)=O)[C@@H]1C [rifampicin]	0.957

* * *

Tested on: Mycobacterium tuberculosis Erdman (autoluminescent)
Test: GRinf, maximum normalised growth rate inhibition (unitless (-1 to 1)); higher = less effect (negative = killing)
Conditions: in vitro model: valerate; time point: terminal (~4-5 doublings, model-specific)
measurementType: GRinf

smiles	value
O=[N+]([O-])c1cn2c(n1)OC[C@@H](OCc1ccc(OC(F)(F)F)cc1)C2	-0.00421
CO[C@H]1/C=C/O[C@@]2(C)Oc3c(C)c(O)c4c(O)c(c(/C=N/N5CCN(C)CC5)c(O)c4c3C2=O)NC(=O)/C(C)=C\C=C\[C@H](C)[C@H](O)[C@@H](C)[C@@H](O)[C@@H](C)[C@H](OC(C)=O)[C@@H]1C	0.0202
CO[C@H]1/C=C/O[C@@]2(C)Oc3c(C)c(O)c4c(O)c(c(/C=N/N5CCN(C6CCCC6)CC5)c(O)c4c3C2=O)NC(=O)/C(C)=C\C=C\[C@H](C)[C@H](O)[C@@H](C)[C@@H](O)[C@@H](C)[C@H](OC(C)=O)[C@@H]1C	0.0374
CC(=O)NC[C@H]1CN(c2ccc(N3CCOCC3)c(F)c2)C(=O)O1	-0.0311

* * *

Test system: Mycobacterium tuberculosis Erdman (autoluminescent)
Test: total FIC90 (Loewe) at 90% inhibition, three-drug combination (log2); higher = more antagonistic
Conditions: in vitro model: acidic pH 5.7; time point: terminal (~4-5 doublings, model-specific)
compounds and their reported total FIC90
measurementType: total FIC90

compound	value
CC[C@@H](CO)NCCN[C@@H](CC)CO [ethambutol] + COc1c(N2C[C@@H]3CCCN[C@@H]3C2)c(F)cc2c(=O)c(C(=O)O)cn(C3CC3)c12 [moxifloxacin] + O=[N+]([O-])c1cn2c(n1)OC[C@@H](OCc1ccc(OC(F)(F)F)cc1)C2 [pretomanid]	0.811
CC[C@@H](CO)NCCN[C@@H](CC)CO [ethambutol] + O=[N+]([O-])c1cn2c(n1)OC[C@@H](OCc1ccc(OC(F)(F)F)cc1)C2 [pretomanid] + CO[C@H]1/C=C/O[C@@]2(C)Oc3c(C)c(O)c4c(O)c(c(/C=N/N5CCN(C)CC5)c(O)c4c3C2=O)NC(=O)/C(C)=C\C=C\[C@H](C)[C@H](O)[C@@H](C)[C@@H](O)[C@@H](C)[C@H](OC(C)=O)[C@@H]1C [rifampicin]	-0.7
COc1nc2ccc(Br)cc2cc1[C@@H](c1ccccc1)[C@@](O)(CCN(C)C)c1cccc2ccccc12 [bedaquiline] + CC[C@@H](CO)NCCN[C@@H](CC)CO [ethambutol] + CO[C@H]1/C=C/O[C@@]2(C)Oc3c(C)c(O)c4c(O)c(c(/C=N/N5CCN(C6CCCC6)CC5)c(O)c4c3C2=O)NC(=O)/C(C)=C\C=C\[C@H](C)[C@H](O)[C@@H](C)[C@@H](O)[C@@H](C)[C@H](OC(C)=O)[C@@H]1C [rifapentine]	-0.455
COc1nc2ccc(Br)cc2cc1[C@@H](c1ccccc1)[C@@](O)(CCN(C)C)c1cccc2ccccc12 [bedaquiline] + NNC(=O)c1ccncc1 [isoniazid] + CC(=O)NC[C@H]1CN(c2ccc(N3CCOCC3)c(F)c2)C(=O)O1 [linezolid]	0.522
CC(C)/N=c1\cc2n(-c3ccc(Cl)cc3)c3ccccc3nc-2cc1Nc1ccc(Cl)cc1 [clofazimine] + CC(=O)NC[C@H]1CN(c2ccc(N3CCOCC3)c(F)c2)C(=O)O1 [linezolid] + CO[C@H]1/C=C/O[C@@]2(C)Oc3c(C)c(O)c4c(O)c(c(/C=N/N5CCN(C6CCCC6)CC5)c(O)c4c3C2=O)NC(=O)/C(C)=C\C=C\[C@H](C)[C@H](O)[C@@H](C)[C@@H](O)[C@@H](C)[C@H](OC(C)=O)[C@@H]1C [rifapentine]	0.39
NNC(=O)c1ccncc1 [isoniazid] + CO[C@H]1/C=C/O[C@@]2(C)Oc3c(C)c(O)c4c(O)c(c(/C=N/N5CCN(C6CCCC6)CC5)c(O)c4c3C2=O)NC(=O)/C(C)=C\C=C\[C@H](C)[C@H](O)[C@@H](C)[C@@H](O)[C@@H](C)[C@H](OC(C)=O)[C@@H]1C [rifapentine] + CO[C@H]1/C=C/O[C@@]2(C)Oc3c(C)c(O)c4c(O)c(c(/C=N/N5CCN(C)CC5)c(O)c4c3C2=O)NC(=O)/C(C)=C\C=C\[C@H](C)[C@H](O)[C@@H](C)[C@@H](O)[C@@H](C)[C@H](OC(C)=O)[C@@H]1C [rifampicin]	0.407
CC[C@@H](CO)NCCN[C@@H](CC)CO [ethambutol] + NNC(=O)c1ccncc1 [isoniazid] + CO[C@H]1/C=C/O[C@@]2(C)Oc3c(C)c(O)c4c(O)c(c(/C=N/N5CCN(C6CCCC6)CC5)c(O)c4c3C2=O)NC(=O)/C(C)=C\C=C\[C@H](C)[C@H](O)[C@@H](C)[C@@H](O)[C@@H](C)[C@H](OC(C)=O)[C@@H]1C [rifapentine]	-0.0587
